Origin of measurements: ChEMBL document CHEMBL1153428

species on record: Homo sapiens; assay: Selectivity for human V1a receptor to human V2 receptor
I would appreciate it if you labelled entries condition met when Ratio Ki is 3 or higher, otherwise condition not met.

Some entries whose results are on file:
Cc1ccn(-c2ccc(C(=O)N3CCC(F)(F)/C(=C\C(=O)NCc4cccnc4)c4ccccc43)c(Cl)c2)n1 ... condition not met
Cc1ccn(-c2ccc(C(=O)N3CCC(F)(F)/C(=C\C(=O)NCc4cnccn4)c4ccccc43)c(Cl)c2)n1 ... condition met
Cc1ccn(-c2ccc(C(=O)N3CCC(F)(F)/C(=C\C(=O)NCC(N)=O)c4ccccc43)c(Cl)c2)n1 ... condition met
Cc1ccn(-c2ccc(C(=O)N3CCC(F)(F)/C(=C\C(=O)NCc4ccco4)c4ccccc43)c(Cl)c2)n1 ... condition not met
Cc1ccn(-c2ccc(C(=O)N3CCC(F)(F)/C(=C\C(N)=O)c4ccccc43)c(Cl)c2)n1 ... condition met
Cc1ccn(-c2ccc(C(=O)N3CCC(F)(F)/C(=C\C(=O)NCC(=O)O)c4ccccc43)c(Cl)c2)n1 ... condition met

For this compound, is measured Ratio Ki 3 or higher? Cc1ccn(-c2ccc(C(=O)N3CCC(F)(F)/C(=C\C(=O)NCc4nc5ccccc5[nH]4)c4ccccc43)c(Cl)c2)n1
condition met

What do you have for Cc1ccn(-c2ccc(C(=O)N3CCC(F)(F)/C(=C\C(=O)NCc4cccc(N)n4)c4ccccc43)c(Cl)c2)n1 ?
condition met

What do you have for Cc1ccn(-c2ccc(C(=O)N3CCC(F)(F)/C(=C\C(=O)NCc4ccncc4)c4ccccc43)c(Cl)c2)n1 ?
condition not met

What do you have for CCCNC(=O)/C=C1/c2ccccc2N(C(=O)c2ccc(-n3ccc(C)n3)cc2Cl)CCC1(F)F ?
condition not met

What do you have for COc1cccc(CNC(=O)/C=C2/c3ccccc3N(C(=O)c3ccc(-n4ccc(C)n4)cc3Cl)CCC2(F)F)n1 ?
condition not met

What do you have for Cc1ccn(-c2ccc(C(=O)N3CCC(F)(F)/C(=C\C(=O)NCc4cccc(N(C)C)n4)c4ccccc43)c(Cl)c2)n1 ?
condition met

What do you have for Cc1ccn(-c2ccc(C(=O)N3CCC(F)(F)/C(=C\C(=O)NCc4ccncn4)c4ccccc43)c(Cl)c2)n1 ?
condition met

What do you have for Cc1ccn(-c2ccc(C(=O)N3CCC(F)(F)/C(=C\C(=O)NCc4nccs4)c4ccccc43)c(Cl)c2)n1 ?
condition met

What do you have for Cc1cccc(CNC(=O)/C=C2/c3ccccc3N(C(=O)c3ccc(-n4ccc(C)n4)cc3Cl)CCC2(F)F)n1 ?
condition met

----------
molecular target: Cytochrome P450 2C19 (Homo sapiens, UniProt P33261); experiment: Inhibition of recombinant CYP2C19 by fluorescent P450 inhibition assay
Sequence (P33261 whole entry): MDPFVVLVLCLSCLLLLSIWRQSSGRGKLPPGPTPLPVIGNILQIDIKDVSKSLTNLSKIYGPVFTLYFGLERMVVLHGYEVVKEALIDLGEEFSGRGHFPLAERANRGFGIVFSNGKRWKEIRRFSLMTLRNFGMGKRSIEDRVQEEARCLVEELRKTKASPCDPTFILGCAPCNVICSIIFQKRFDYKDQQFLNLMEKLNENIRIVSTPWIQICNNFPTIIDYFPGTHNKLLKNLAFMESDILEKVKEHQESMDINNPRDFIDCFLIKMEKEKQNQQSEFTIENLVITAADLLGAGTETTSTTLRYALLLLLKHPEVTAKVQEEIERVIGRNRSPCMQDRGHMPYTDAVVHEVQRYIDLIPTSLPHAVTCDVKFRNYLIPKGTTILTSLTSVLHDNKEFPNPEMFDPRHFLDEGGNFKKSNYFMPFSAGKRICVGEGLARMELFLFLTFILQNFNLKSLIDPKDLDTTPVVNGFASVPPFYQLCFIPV
pIC50: −log10 of the molar value.
Observation type: pIC50

Record Cc1ccn(-c2ccc(C(=O)N3CCC(F)(F)/C(=C\C(=O)O)c4ccccc43)c(Cl)c2)n1 : what is its pIC50 with Cytochrome P450 2C19 (Homo sapiens, UniProt P33261)?
< 4.70

----------
target: Vasopressin V2 receptor (Homo sapiens); assay: Agonist activity at human V2 receptor expressed in CHO cells assessed as increase in cAMP level
Sequence (P30518 whole entry): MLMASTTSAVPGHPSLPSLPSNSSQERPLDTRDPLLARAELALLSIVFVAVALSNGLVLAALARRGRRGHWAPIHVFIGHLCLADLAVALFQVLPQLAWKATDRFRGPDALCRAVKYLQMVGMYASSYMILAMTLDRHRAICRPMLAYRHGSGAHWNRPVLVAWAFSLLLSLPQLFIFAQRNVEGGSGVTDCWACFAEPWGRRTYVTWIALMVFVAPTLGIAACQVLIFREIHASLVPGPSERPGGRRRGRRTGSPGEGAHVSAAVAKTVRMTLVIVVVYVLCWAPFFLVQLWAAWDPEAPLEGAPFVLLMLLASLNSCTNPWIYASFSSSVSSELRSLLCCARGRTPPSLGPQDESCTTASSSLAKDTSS
Observation type: EC50

Some compounds with recorded EC50:
Cc1ccn(-c2ccc(C(=O)N3CCC(F)(F)/C(=C\C(=O)NCCO)c4ccccc43)c(Cl)c2)n1 ... 6.3 nM
Cc1ccn(-c2ccc(C(=O)N3CCC(F)(F)/C(=C\C(=O)O)c4ccccc43)c(Cl)c2)n1 ... 4.2 nM

Can you look up the measured EC50 of Cc1ccn(-c2ccc(C(=O)N3CCC(F)(F)/C(=C\C(=O)NCc4cccnn4)c4ccccc43)c(Cl)c2)n1 for me?
16 nM
